- ASSAYED_SYSTEM: CYP126A1 (Mycobacterium tuberculosis, UniProt P9WPN9)
- Construct: gene cyp126
- Sequence (P9WPN9 whole entry): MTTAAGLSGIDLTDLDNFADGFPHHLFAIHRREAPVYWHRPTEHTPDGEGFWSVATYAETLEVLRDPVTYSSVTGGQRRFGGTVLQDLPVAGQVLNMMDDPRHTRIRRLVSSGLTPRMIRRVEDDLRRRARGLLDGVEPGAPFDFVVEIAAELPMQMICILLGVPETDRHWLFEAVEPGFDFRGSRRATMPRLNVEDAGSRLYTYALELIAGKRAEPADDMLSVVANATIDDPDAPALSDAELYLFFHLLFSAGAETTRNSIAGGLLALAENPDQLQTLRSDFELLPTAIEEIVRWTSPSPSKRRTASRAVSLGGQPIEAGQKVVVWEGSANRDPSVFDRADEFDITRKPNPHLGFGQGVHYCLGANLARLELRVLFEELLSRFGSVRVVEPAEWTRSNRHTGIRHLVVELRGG
- TEST_METHOD_NOTES: UV-visible absorbance titration (heme Soret shift)
- Assay type: binding
- EXPERIMENTAL_CONTEXT: read-out: Kd
PROPERTY: log10 Kd (log10 of the value in µM)
Field: value | Transform: log10 | Quantity: Kd | Unit: µM

Study these solved cases before continuing.
Cc1cccc(CSc2ncc(Cl)c(C(=O)Nc3nnc(C)s3)n2)c1 [compound 5, Compound 5]: 0.79
Cc1ccc(NC(=O)c2cccc3nc4ccccc4nc23)cc1 [compound 3, Compound 3]: 1.75
O=C1CCCC2Oc3c(cc(NS(=O)(=O)c4ccc([N+](=O)[O-])cc4)c4ccccc34)C12 (stereo not drawn) [compound 2, Compound 2]: 0.45
O=C1CC(N2CCN(Cc3ccc4c(c3)OCO4)CC2)C(=O)N1Cc1ccc(Cl)cc1 (stereo not drawn) [compound 4]: 1.81

Record log10 Kd per entry; entries follow.
1. O=C(Nc1nc2ccc(F)cc2s1)c1nc(SCc2ccccc2F)ncc1Cl [compound 6, Compound 6]
2. COc1ccc(-c2noc(CN(C(=O)Cc3ccc([N+](=O)[O-])cc3)C(C)C)n2)cc1 [compound 1]

1.40
1.26

Every entry's value here was drawn from paper PMC5270475.
